assay-metric: melting point

Exercise: Entry under review: N#Cc1ccc(Cc2cccc3c2CCN(Cc2cncn2Cc2ccc(C#N)cc2)C3)cc1 . Reported melting point?
Solution: 195 to 196 °C

Exercise: Field request: melting point | item: O=C(CCl)CCCCc1ccc(CCCCC(=O)CCl)cc1
Solution: 86 to 87 °C

Exercise: Tell me the measured melting point of CCCCc1oc2ccccc2c1C(=O)c1ccc(N(CCN(CC)CC)S(=O)(=O)c2cccnc2)cc1 , please.
Solution: 141 to 146 °C

Exercise: Bench note: what melting point did COC(=O)c1cc2cc(OC)c(OC)cc2nc1/N=C/N(C)C show?
Solution: 166 to 168 °C

Exercise: Field request: melting point | item: CCCCc1c(C(=O)N(C)Cc2ccc3c(Br)c(OCc4nnn[nH]4)ccc3c2)c2ccccc2n1C
Solution: 147 to 149 °C

Exercise: # melting point lookup, item CCCCCCCCCCCCCCCCCCOc1ccc(C(=O)OCC)cc1[N+](=O)[O-]
Solution: 48 to 56 °C

Exercise: What does the record list as melting point for CCOC(=O)c1ccc2c(c1)CCC(COS(=O)(=O)c1ccc(C)cc1)C2 (centres undefined) ?
Solution: 76 to 78 °C

Exercise: Which melting point is reported for this compound? C=CCOC(=O)CC(=O)NC1C(=O)N2C1SC(C)(C)C2C(=O)OCC=C (centres undefined)
Solution: 59 to 60 °C

Exercise: Value lookup for melting point; key = CC(C)OC(=O)C(C(=O)O)c1ccccc1 (centres undefined)
Solution: 64 to 66 °C

====

Assignment: determine reported melting point for the given molecules.

Exercise: Data request, read-out melting point, for CCOC1=NS(=O)(=O)N=C1N[C@@H]1c2cc(OC(F)(F)F)ccc2OC(C)(C)[C@H]1O
Solution: 192 to 194 °C

Exercise: If you can, please state the reported melting point value of Cc1oc(-c2ccccc2)nc1CCOc1ccc(/C=C/CO)cc1 .
Solution: 127 to 128 °C

Exercise: Request the reported melting point associated with NC(=S)Nc1cc[nH]n1
Solution: 130 to 132 °C

Exercise: Need melting point, item CC(C)(C)OC(=O)Nc1cn(-c2cccnc2)nc1Cl
Solution: 125 to 128 °C

Exercise: # query: melting point of entry Cc1nc(NC(=O)c2cc(Cl)cc(Cl)c2)sc1C(=O)NCc1ccccc1
Solution: 104 to 105 °C

Exercise: # get_value(readout='melting point', item= CCCc1c(OCCCCCCc2cccc(O)c2O)ccc(C(=O)O)c1O )
Solution: 147 to 150 °C

====

assay-metric: melting point

Exercise: For the compound CN(C)c1ccc(C(C)(C(=O)O)c2ccc(N(C)C)cc2)cc1 , what melting point is on record?
Solution: 152 to 154 °C

Exercise: Field request: melting point | item: N#Cc1ccc(N2C(=O)NC3(CCS(=O)CC3)C2=O)cc1C(F)(F)F (stereo not given)
Solution: 260 to 277 °C

Exercise: Record request: melting point value, item CCCCCC(=O)CCC1CCC(CCCCCCCC(=O)O)O1 (stereo not given)
Solution: 26 to 28 °C

Exercise: Tell me the measured melting point of CCN(CC)CCC1CCc2cc(O)ccc2C1 (single isomer, unassigned; (+)) , please.
Solution: 102 to 104 °C

Exercise: What does the data say about its melting point? Entry: O=S(=O)(Cl)c1c(Cl)cc(F)cc1Cl
Solution: 57 °C

Exercise: Could you share which melting point value was measured for O=C(Cc1ccccc1)N1CC2COCC2C1 (stereo not given) ?
Solution: 47.5 to 48.5 °C

Exercise: For the compound shown here, COC(=O)C1(C)Oc2ccc(Cl)cc2C(C)(C)O1 (stereo not given) , give the reported melting point.
Solution: 89 °C

Exercise: Consider the compound OCC#Cc1cccnc1 and give its measured melting point.
Solution: 99 to 100 °C

Exercise: May I ask what melting point has been recorded for O=C(Oc1cccc2c(-c3ccccc3)c3cccc(OC(=O)C4CCCCC4)c3c(OC(=O)C3CCCCC3)c12)C1CCCCC1 ?
Solution: 235 °C

Exercise: // query melting point value for entry Cc1cccc(-n2nc(C)c3c(=O)c4cc(F)c(F)cc4[nH]c32)n1
Solution: 301 to 302 °C
